Data origin: patent US20200157212A1

- assayTarget: T1, Human ROBO2 overexpressed on HEK293 cells (human, UniProt Q9HCK4 22-1378)
- T1 construct: also called ROBO2 cells; native ROBO2
- T1 sequence: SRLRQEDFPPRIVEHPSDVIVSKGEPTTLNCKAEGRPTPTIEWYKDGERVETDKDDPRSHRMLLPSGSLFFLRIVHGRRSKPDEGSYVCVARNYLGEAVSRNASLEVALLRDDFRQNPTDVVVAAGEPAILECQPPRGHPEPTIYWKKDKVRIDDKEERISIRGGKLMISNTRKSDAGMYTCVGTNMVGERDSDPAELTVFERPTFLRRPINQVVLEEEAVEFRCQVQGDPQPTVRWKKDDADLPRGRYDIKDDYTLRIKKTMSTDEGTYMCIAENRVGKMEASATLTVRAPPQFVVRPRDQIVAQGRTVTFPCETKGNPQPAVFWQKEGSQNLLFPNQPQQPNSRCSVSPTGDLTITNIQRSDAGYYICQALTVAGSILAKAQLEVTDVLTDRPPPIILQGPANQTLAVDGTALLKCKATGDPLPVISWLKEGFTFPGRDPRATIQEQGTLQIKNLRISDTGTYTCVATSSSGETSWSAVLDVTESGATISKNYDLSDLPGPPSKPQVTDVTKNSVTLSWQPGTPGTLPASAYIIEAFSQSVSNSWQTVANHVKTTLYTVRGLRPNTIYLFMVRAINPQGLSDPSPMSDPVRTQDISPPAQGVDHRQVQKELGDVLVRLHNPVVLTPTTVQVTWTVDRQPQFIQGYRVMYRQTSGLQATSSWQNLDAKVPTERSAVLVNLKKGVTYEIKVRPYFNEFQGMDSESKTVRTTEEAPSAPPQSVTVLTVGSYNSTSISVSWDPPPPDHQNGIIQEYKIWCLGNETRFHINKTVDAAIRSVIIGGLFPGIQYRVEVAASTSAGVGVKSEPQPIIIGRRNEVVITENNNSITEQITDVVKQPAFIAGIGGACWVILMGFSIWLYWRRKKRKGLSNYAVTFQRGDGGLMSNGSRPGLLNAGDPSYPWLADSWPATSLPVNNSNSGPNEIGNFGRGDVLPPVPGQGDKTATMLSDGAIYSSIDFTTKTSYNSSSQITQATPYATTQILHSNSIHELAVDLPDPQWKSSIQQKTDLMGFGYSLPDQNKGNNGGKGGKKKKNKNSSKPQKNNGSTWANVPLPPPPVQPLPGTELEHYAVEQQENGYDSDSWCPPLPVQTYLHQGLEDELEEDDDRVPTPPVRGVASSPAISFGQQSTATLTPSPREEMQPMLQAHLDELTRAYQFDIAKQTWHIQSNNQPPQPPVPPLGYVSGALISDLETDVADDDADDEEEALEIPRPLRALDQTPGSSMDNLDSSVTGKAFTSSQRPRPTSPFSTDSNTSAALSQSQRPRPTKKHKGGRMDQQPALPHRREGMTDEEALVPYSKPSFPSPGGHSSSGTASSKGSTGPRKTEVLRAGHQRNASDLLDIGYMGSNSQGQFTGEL
- procedureDetails: flow cytometry, Geo MFI ROBO2/ROBO1 HEK293 cells, 0.1 µg/ml
endpoint: Fold Selectivity for ROBO2/ROBO1 (fold)
Write it as a number; the unit fold goes unstated.

Ab3 (antibody, human IgG1, kappa, V domains shown, full-length human IgG) VH: EVQLVQSGAEVKKPGASVKVSCKASGYTFTGYYMHWVRQAPGQGLEWMGWINPKSGATNFPQKFQGRVTMTRDTSITTAYMDLSRLRSDDTAVYYCARESGDDAFDIWGQGTMVTVSS VL: DIVMTQSPSSLSASVGDRVTITCRASQKISSYLNWYQQKPGKAPKLLIYAASSLQSGVPSRFSGSGSGTDFTLTISSLQPEDFATYYCQQSYSTSFGGGTKVEIKR; 92
Ab112 (antibody, human IgG1, kappa, V domains shown, full-length human IgG) VH: EVQLVQSGAEVKKPGASVKVSCKASGYTFTGYYMHWVRQAPGQGLEWMGWINPNSGATNFPQKFQGRVTMTRDTSITTAYMDLSRLRSDDTAVYYCARESGDDAFDIWGQGTMVTVSS VL: DIVMTQSPSSLSASVGDRVTITCRASQSISSYLNWYQQKPGKAPKLLIYAASSLQSGVPSRFSGSGSGTDFTLTISSLQPEDFATYYCQQSVGLSFGGGTKVEIKR; 39.2

Here's the next entry for you.
The reported value for Ab22 (antibody, human IgG1, kappa, V domains shown, full-length human IgG) VH: EVQLVQSGAEVKKPGASVKVSCKASGYTFTGYYMHWVRQAPGQGLEWMGWINPRSGATNFPQKFQGRVTMTRDTSITTAYMDLSRLRSDDTAVYYCARESGDDAFDIWGQGTMVTVSS VL: DIVMTQSPSSLSASVGDRVTITCRASQSISSYLNWYQQKPGKAPKLLIYAASSLQYGVPSRFSGSGSGTDFTLTISSLQPEDFATYYCQQSYSTSFGGGTKVEIKR in terms of Fold Selectivity for ROBO2/ROBO1 is 67.4
